Values were extracted from the supplement of paper PMC6555819.

tested on: THRa homodimer (NR concentration 90 nM); assay: PBM binding z-score (relative to random genomic background probes); higher = stronger binding; sequences stand for … in GC…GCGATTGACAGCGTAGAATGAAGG
PBM binding z-score by entry:
Give your answer as a number; write no unit.

See these solved cases before continuing.
ATCGAAAGGTCGAAAGTGAGTATACCCACCCGAA: -0.286
CCTAGCAGGCCAGGTTCACTCAAGCATTTCGCTT: 0.0438
CTCGAAAGGTGGTGCTCAGGTGAGTATACCAAAC: 0.504
CCTTACGGGTCGCTGACAGGTTATAGCATTTGGA: -0.259
ACTAGTTGGTCAGCTGGGGTCACACACAATTCGG: 3.54

Turning to the following sequence.
Fill in the blank: the reported PBM binding z-score of ATATATAGGTTAGGGTCATTCAGAAAGTAGGGAA is ____.
3.76

====

tested on: RARa homodimer (NR concentration 270 nM); experiment: PBM binding z-score (relative to random genomic background probes); higher = stronger binding; sequences stand for … in GC…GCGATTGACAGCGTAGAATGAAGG
measurement-label: PBM binding z-score
Give your answer as a number; write no unit.

See these solved cases before continuing.
CCGAGTAGATTACGAGGGGGCATTCAGTGCGAAT: -0.0773
CGATCTAGGTCACCAGGACAGTGAAGAGGTTGGA: -0.0617
CTATGTAGGATAAGGGGGTCATTCAGTTTGAAAG: 2.91

Fill in the blank: the reported PBM binding z-score of CGCACTAGGTCAAAGGACAGTGAAAGGCGACGTA is ____.
0.165

Fill in the blank: the reported PBM binding z-score of TCATATAGGTTAAGGTGAAAGTCGAACGATATGA is ____.
0.984

Fill in the blank: the reported PBM binding z-score of TCGAGTAGGTTACGAGGGCATTCAGGGATGAAGA is ____.
-0.742

Fill in the blank: the reported PBM binding z-score of AGTAGCAGGCCAAGGGTCACTCAAGATTAGTCCG is ____.
0.186

Fill in the blank: the reported PBM binding z-score of TCTAGTTGGTCACGGGGGTCACACACGACGGGTA is ____.
2

====

PBM binding z-score by entry:
test system: PXR:RXRa (NR concentration 270 nM, RXRa partner concentration 90 nM); experiment: PBM binding z-score (relative to random genomic background probes); higher = stronger binding; sequences stand for … in GC…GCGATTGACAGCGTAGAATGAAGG
Give your answer as a number; write no unit.

CCTACAGGGCCAAGGTCATTGATCAGTCAAAGCA: 3.54
TCGAATAGGTTACGGGGGCATTCAGGGATGAAGA: 3.82
CTATGTAGGTTAAGGGGGTCATTCACTTTGAAAG: 5.59
CGAACTAGGTCACCTGGACAGTGAAGAGGTTGGA: 1.46
CGAACTAGGTCCAAGGACAGTGAAAGGCGACGTA: -0.326
CCGAGTAGGTTACGAGGCGGCATTCAGTGCGAAT: -0.147
ATCGAAAGGTCGACGAGGAGAGTATACACCGTTT: 2.4
TTACCAAGGTTAAAGGTCGTTGATGCACGCCTTG: 5.16
CTATGTAGGTTAAGGGGGCCATTCAGTTTGAAAG: 2.69
CGAACTAGGTCAAAGGACAGTGAGAGGCGACGTA: 0.82

Fill in the blank: the reported PBM binding z-score of CGAACTAGGTCAAAGGACAATGAAAGGCGACGTA is ____.
1.5

Fill in the blank: the reported PBM binding z-score of CGAACTAGGTCATCAGGACAGTGAAGAGGTTGGA is ____.
1.32

Fill in the blank: the reported PBM binding z-score of ATATGTAGGTTAGGATCATTCAGAAAGTAGGGAA is ____.
0.594

====

test system: PPARg:RXRa 90nM:30nM, anti-RXR (NR concentration 90 nM, RXRa partner concentration 30 nM); experiment: PBM binding z-score (relative to random genomic background probes); higher = stronger binding; sequences stand for … in GC…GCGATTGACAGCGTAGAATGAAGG
Outcome label depends on PBM binding z-score relative to 4: at/above gives True, below gives False.

Study these solved cases before continuing.
CCAAGTAGGTTACGAGGGGGCATTCAGTGCGAAT: False
CCTACTGGGCCAAAAATGTCATTGATGCCGATAA: False
CGTCCAAGGTCACCAGGTCAGTGAAAGCGACGTG: True
CGAACTAGGTCAGAGCAGGACAGTGAAGGATGAT: True
ATATCTAGGTAAAAGTTCAGTGAATCCCGAGGAT: True
CCGACTGGGCCATTCAGAGGTCATTGATCATATG: False
CGCACTAGGTCACCAGGACAGTGAAGAGGTTGGA: True
CGACCTAGGTCACCAGGACAGTGAAGAGGTTGGA: False

Now look at this one.
Exam item: decide whether the reported PBM binding z-score for CTCGAAAGGTCGTGGTCAGGTGAGTATACCAAAC is at least 4.
False

====

system: THRa:RXRa (NR concentration 90 nM, RXRa partner concentration 90 nM); experiment: PBM binding z-score (relative to random genomic background probes); higher = stronger binding; sequences stand for … in GC…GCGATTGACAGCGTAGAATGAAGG
Categorize each record by its PBM binding z-score using 1: < 3; 2: ≥ 3 and < 4; 3: ≥ 4

Kindly identify the class of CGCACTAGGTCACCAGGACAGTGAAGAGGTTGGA .
2

Kindly identify the class of ATATGTCGGTTAGGGTCATTCAGAAAGTAGGGAA .
3

Kindly identify the class of CGAACTAGGTCAAAGTACAGTGAAAGGCGACGTA .
1

Kindly identify the class of TCGAGTAGGTTACGGGGGCATTCTGGGATGAAGA .
2

Kindly identify the class of CTATGTAGGTTAAGGCGGTCATTCAGTTTGAAAG .
1

====

tested on: RXRa DBDmut IVT, anti-RXR (DBD mutation: RXRa K156A/R161A, NR concentration 90 nM); test: PBM binding z-score (relative to random genomic background probes); higher = stronger binding; sequences stand for … in GC…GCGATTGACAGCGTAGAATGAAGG
measurement-label: PBM binding z-score
Give your answer as a number; write no unit.

See these solved cases before continuing.
CCTACTGGGCCATTCAGAGGTCACTGATCATATG: 0.354
CGAACTAGGTCCTTGACAGGACAGTGAATAGTAA: 0.0443
CGTCAAAGTTAAAGGTAACGTAACAGAAAGCAGC: 0.0376
TCGAGTAGGTTACGGCGGCATTCAGGGATGAAGA: -0.00856

Turning to the following sequence.
Fill in the blank: the reported PBM binding z-score of CGAACTAGTTCACCAGGACAGTGAAGAGGTTGGA is ____.
2.02

====

tested on: RARa homodimer (NR concentration 270 nM); assay: PBM binding z-score (relative to random genomic background probes); higher = stronger binding; sequences stand for … in GC…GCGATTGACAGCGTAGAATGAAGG
Outcome label depends on PBM binding z-score relative to 1: at/above gives yes (1), below gives no (0).

Study these solved cases before continuing.
CGAAATAGGTCACCAGGACAGTGAAGAGGTTGGA: yes (1)
CCGAGTAGGTTACGAGGGGACATTCAGTGCGAAT: no (0)
ATATGTGGGTTATCGGGTCATTCAGTTTGCGCAT: yes (1)
ATGGAAAGGTCGTGAGGTGAGTATACAGAAAGGC: yes (1)
CAAACTAGGTCACGAAAGGTCAAAGTTGAATGAC: yes (1)

Exam item: decide whether the reported PBM binding z-score for TCGAGTAGGTTACGGGGGCAGTCAGGGATGAAGA is at least 1.
no (0)

====

system: RARa:RXR (NR concentration 270 nM, RXRa partner concentration 90 nM); experiment: PBM binding z-score (relative to random genomic background probes); higher = stronger binding; sequences stand for … in GC…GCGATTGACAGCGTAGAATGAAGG
Categorize each record by its PBM binding z-score using bucket A: < 1; bucket B: ≥ 1 and < 4; bucket C: ≥ 4

Kindly identify the class of CCTACTGGGCGAAGGTCATTGATCAGTCAAAGCA .
bucket B

Kindly identify the class of CCTACTGGGCCACGAAAGGTAATTGATTCAGTGA .
bucket A

Kindly identify the class of CTATGTAGGTTCAGGGGGTCATTCAGTTTGAAAG .
bucket C

Kindly identify the class of CCTCGGAGGACAACAGGAGGTCAAAGCTGCCAGA .
bucket C

Kindly identify the class of CCGACTTGGGCAAAGGTTACCATACTCAGTACGA .
bucket B

Kindly identify the class of TCGAGCAGGTTACGGGGGCATTCAGGGATGAAGA .
bucket B

Kindly identify the class of TTACCAAGGTGAAAGGTCGTTGAGGCACGCCTTG .
bucket C

Kindly identify the class of CAATCTAGGTCACAGAGGTCAAAGTCCGTGCGTA .
bucket C

Kindly identify the class of ATATGTAGGTTAGGGTCTTTCAGAAAGTAGGGAA .
bucket B
